Study System: OCTN2 (organic cation/carnitine transporter 2) (Homo sapiens, UniProt O76082)
Sequence (O76082 whole entry): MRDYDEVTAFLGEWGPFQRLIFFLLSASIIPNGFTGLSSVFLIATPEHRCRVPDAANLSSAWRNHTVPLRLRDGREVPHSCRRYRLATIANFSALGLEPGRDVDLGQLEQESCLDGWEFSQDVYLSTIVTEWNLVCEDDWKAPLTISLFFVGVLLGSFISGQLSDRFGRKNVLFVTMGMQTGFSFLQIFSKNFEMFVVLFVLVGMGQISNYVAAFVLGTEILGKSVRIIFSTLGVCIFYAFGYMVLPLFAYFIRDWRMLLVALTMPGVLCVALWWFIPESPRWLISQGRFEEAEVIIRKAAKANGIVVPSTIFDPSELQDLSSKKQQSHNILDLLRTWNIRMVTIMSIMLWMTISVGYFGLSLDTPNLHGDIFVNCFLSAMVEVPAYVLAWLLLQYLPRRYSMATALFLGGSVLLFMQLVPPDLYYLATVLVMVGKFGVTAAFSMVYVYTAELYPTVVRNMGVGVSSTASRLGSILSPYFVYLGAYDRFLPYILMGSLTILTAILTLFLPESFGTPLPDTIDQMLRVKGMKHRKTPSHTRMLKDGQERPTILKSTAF
Protocol Summary: in vitro
Condition Info: HeLa cells that express OCTN2, probe TEA, 20 uM
Description: TP_TRANSPORTER: inhibition of TEA uptake (TEA: 20 uM, Choline: 5000 uM) in OCTN2-expressing HeLa cells
Measure Name: activity at 5000 µM

Incoming: Please tell me: activity at 5000 µM of C[N+](C)(C)CCO [CHOLINE] , system OCTN2 (organic cation/carnitine transporter 2) (Homo sapiens, UniProt O76082)?
Outgoing: 75%

###

Study System: OCTN2 (organic cation/carnitine transporter 2) (Homo sapiens)
Protocol Summary: TP_TRANSPORTER: inhibition of TEA uptake (TEA: 20 uM, Methamphetamine: 5000 uM) in OCTN2-expressing HeLa cells
Format: functional, cell-based
Design: scale not given: the % may be the effect or the level left
Condition Info: HeLa cells that express OCTN2, probe TEA, read-out: Activity
Measure Name: activity at 5000 µM (%)
Provide only the numeric value, understood in %.

Incoming: I have this compound here, `CN[C@@H](C)Cc1ccccc1` , and I need its recorded activity at 5000 µM.
Outgoing: 66

###

Study System: OCTN2 (organic cation/carnitine transporter 2) (Homo sapiens)
Protocol Summary: TP_TRANSPORTER: inhibition of TEA uptake (TEA: 20 uM Procainamide: 5000 uM) in OCTN2-expressing HeLa cells
Format: functional, cell-based
Set-up: scale not given: the % may be the effect or the level left
Condition Info: HeLa cells that express OCTN2, probe TEA, read-out: Activity
Measure Name: activity at 5000 µM (%)
Reply with just the number (in %).

Incoming: Which activity at 5000 µM value belongs to CCN(CC)CCNC(=O)c1ccc(N)cc1 [PROCAINAMIDE] ?
Outgoing: 39
